Test: Cytotoxicity against human THP1 cells after 5 days by MTT assay
Assay type: cell-based, THP-1
Conditions: Homo sapiens, THP-1, 120 h
Metric Name: IC50 (µg/mL)
Write down the numeric answer in µg/mL and omit the unit.

Consider the reported IC50 for these compounds:
O=C(NN1C(=O)CS[C@@H]1c1ccc([N+](=O)[O-])cc1)c1cnccn1 = 97.7
COc1cc([C@@H]2SCC(=O)N2NC(=O)c2cnc(C)cn2)ccc1O = 86.9
COc1ccc([C@H]2SCC(=O)N2NC(=O)c2nccnc2N)cc1OC = 85.4
CCOc1cc([C@H]2SCC(=O)N2NC(=O)c2nccnc2N)ccc1O = 68.9

Kindly review the next compound as well.
Identify measured IC50 corresponding to Nc1nccnc1C(=O)NN1C(=O)CSC1c1ccccc1 (stereo not given)
89.6

Where do the numbers come from? From ChEMBL document CHEMBL3792312.
